Test system: C57BL/6J mice
Assay: Oral glucose tolerance test (1)
Type: in vivo
Details: 0.03 nmol/kg, s.c. 30 minutes before glucose loading, 30 minutes after oral glucose, control group = 100
Description: Oral Glucose Tolerance Test (1) An oral glucose tolerance test (OGTT) was carried out using C57BL/6J mice with a […].
reported_endpoint: Rate of increase in blood glucose level (%) 30 min
Answers are plain numbers, in %.

- substance: "Methyl-Tyr-Aib-Glu-Gly-Thr-Phe-Ile-Ser-Asp-Tyr-Ser-Ile-Ala-Leu-Asp-Arg-Ile-Ala-Gln-Gln-Asp-Phe-Val-Asn-Trp-Leu-Leu-Ala-Gln-Arg-Pro-Ser-Ser-Gly-Ala-Pro-Pro-Pro-Ser-Arg-NH2 [Compound 59]"
  assayed_target: "C57BL/6J mice"
  value_observed: 41
- substance: "H-Tyr-Aib-Glu-Gly-Thr-Val-Val-Ser-Leu-Tyr-Ser-Ile-Aib-Leu-Asp-Lys-Gln-Ala-Gln-Aib-Glu-Phe-Val-Lys-Trp-Aib-Leu-Lys-Gly-Gly-Pro-Ser-Ser-Gly-Ala-Pro-Pro-Pro-Ser-Lys-NH2 [Compound 42]"
  assayed_target: "C57BL/6J mice"
  value_observed: 70
- substance: "H-Tyr-Aib-Glu-Gly-Thr-Val-Val-Ser-Leu-Tyr-Ser-Ile-Aib-Leu-Asp-Lys-Gln-Ala-Gln-Aib-Glu-Phe-Val-Lys-Trp-Leu-Leu-Lys-Gly-Gly-Pro-Ser-Ser-Gly-Ala-Pro-Pro-Pro-Ser-Lys-NH2 [Compound 6]"
  assayed_target: "C57BL/6J mice"
  value_observed: 56
- substance: "Methyl-Tyr-Aib-Glu-Gly-Thr-Iva-Ile-Ser-Asp-Tyr-Ser-Ile-Ala-Leu-Asp-Arg-Aib-Ala-Gln-Aib-Asn-Phe-Val-Asn-Trp-Leu-Leu-Ala-Gln-Arg-Pro-Ser-Ser-Gly-Ala-Pro-Pro-Pro-Ser-Arg-NH2 [Compound 104]"
  assayed_target: "C57BL/6J mice"
  value_observed: 31
- substance: "Methyl-Tyr-Aib-Glu-Gly-Thr-Phe-Ile-Ser-Asp-Tyr-Ser-Ile-Ala-Leu-Asp-Arg-Aib-His-Gln-Aib-Asn-Phe-Val-Asn-Trp-Iva-Leu-Ala-Gln-Arg-Pro-Ser-Ser-Gly-Ala-Pro-Pro-Pro-Ser-Arg-NH2 [Compound 117]"
  assayed_target: "C57BL/6J mice"
  value_observed: 51
- substance: "Methyl-Tyr-Aib-Glu-Gly-Thr-Iva-Ile-Ser-Asp-Tyr-Ser-Ile-Aib-Leu-Asp-Arg-Aib-Ala-Gln-Aib-Asn-Phe-Val-Asn-Trp-Iva-Leu-Ala-Gln-Arg-Pro-Ser-Ser-Gly-Ala-Pro-Pro-Pro-Ser-Arg-NH2 [Compound 113]"
  assayed_target: "C57BL/6J mice"
  value_observed: 48

Hello, please tell me recorded Rate of increase in blood glucose level (%) 30 min for this one: H-Tyr-Aib-Glu-Gly-Thr-Val-Val-Ser-Leu-Tyr-Ser-Ile-Aib-Leu-Asp-Arg-Gln-Ala-Gln-Aib-Glu-Phe-Val-Arg-Trp-Leu-Leu-Arg-Gly-Gly-Pro-Ser-Ser-Gly-Ala-Pro-Pro-Pro-Ser-Arg-NH2 [Compound 30]
96
